Numbers sourced from BindingDB's records for patent US10364255.

target: Pantetheinase [T26I] (Homo sapiens, UniProt O95497, T26I); test: Enzymatic Assay
Sequence (O95497 22-491 T26I limits assumed): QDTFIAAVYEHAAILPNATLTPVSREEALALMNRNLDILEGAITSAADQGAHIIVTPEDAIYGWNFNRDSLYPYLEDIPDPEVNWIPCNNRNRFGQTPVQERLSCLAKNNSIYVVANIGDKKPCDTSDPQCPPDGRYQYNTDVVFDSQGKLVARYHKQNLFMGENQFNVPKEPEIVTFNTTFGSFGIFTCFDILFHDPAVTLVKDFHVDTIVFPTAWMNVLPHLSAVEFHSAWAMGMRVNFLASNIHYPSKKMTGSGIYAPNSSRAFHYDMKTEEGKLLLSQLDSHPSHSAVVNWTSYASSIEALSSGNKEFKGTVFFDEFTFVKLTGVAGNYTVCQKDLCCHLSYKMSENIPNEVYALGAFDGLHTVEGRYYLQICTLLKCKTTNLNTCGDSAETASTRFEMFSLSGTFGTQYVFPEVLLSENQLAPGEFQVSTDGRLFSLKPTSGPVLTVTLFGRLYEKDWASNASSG
Provide the reported IC50 of each item.
The response must be a number in nM with no trailing unit.

Query: Item: `CC(=O)N(C)[C@H]1CCN(C(=O)c2cnc3c(c2)O[C@H](C)CN3)C1` Test system: Pantetheinase [T26I] (Homo sapiens, UniProt O95497, T26I) Read-out: IC50 Value: ?
Response: 1.3

Query: Item: O=C(c1cnc2c(c1)O[C@H](CO)CN2)N1CCC(c2ccncc2)C1 (stereo partly drawn) Test system: Pantetheinase [T26I] (Homo sapiens, UniProt O95497, T26I) Read-out: IC50 Value: ?
Response: 3.7

Query: Item: `CC(=O)N(C)[C@H]1CCN(C(=O)c2cnc3c(c2)OCCCN3)C1` Test system: Pantetheinase [T26I] (Homo sapiens, UniProt O95497, T26I) Read-out: IC50 Value: ?
Response: 1.7

Query: Item: O=C(c1cnc2c(c1)OCCN2)N1CCC(c2ccncc2)C1 (stereo not drawn) Test system: Pantetheinase [T26I] (Homo sapiens, UniProt O95497, T26I) Read-out: IC50 Value: ?
Response: 14.2

Query: Item: `CC(=O)N(C)[C@H]1CCN(C(=O)c2cnc3c(c2)OCCN3)C1` Test system: Pantetheinase [T26I] (Homo sapiens, UniProt O95497, T26I) Read-out: IC50 Value: ?
Response: 8.1

Query: Item: `CC(=O)N(C)[C@H]1CCN(C(=O)c2cnc3c(c2)O[C@H](CO)CN3)C1` Test system: Pantetheinase [T26I] (Homo sapiens, UniProt O95497, T26I) Read-out: IC50 Value: ?
Response: 2.5

Query: Item: `O=C(c1cnc2c(c1)OCCN2)N1CCCCC1` Test system: Pantetheinase [T26I] (Homo sapiens, UniProt O95497, T26I) Read-out: IC50 Value: ?
Response: 2800

Query: Item: `CC(=O)N(C)[C@H]1CCN(C(=O)c2cnc3c(c2)OCC(C)(C)N3)C1` Test system: Pantetheinase [T26I] (Homo sapiens, UniProt O95497, T26I) Read-out: IC50 Value: ?
Response: 0.5
